tested on: A549 lung cancer cell; assay type: cell-based, human
Ends that are not written are not given here.
reported.property: IC50 (µM)
Give bare numbers, in µM.

Request: Item under review: ALSTSSPIPSVPQSQAQPQTGSGAS [2F3] . Reported IC50?
Result: 19.6

###

molecular target: phosphatidylserine decarboxylase (PSD) (Homo sapiens); construct: Purified recombinant protein (full length) of human phosphatidylserine decarboxylase (PSD); His tag (N); purchased Acris-OriGene; host or cells: E. coli; experiment: MST binding of synthetic peptides to fluorescently-labelled purified PSD; settings: PSD 0.25 μM, peptide 1-10 μM, 30 min at 37° C.
Sequence (Q9UG56 53-409): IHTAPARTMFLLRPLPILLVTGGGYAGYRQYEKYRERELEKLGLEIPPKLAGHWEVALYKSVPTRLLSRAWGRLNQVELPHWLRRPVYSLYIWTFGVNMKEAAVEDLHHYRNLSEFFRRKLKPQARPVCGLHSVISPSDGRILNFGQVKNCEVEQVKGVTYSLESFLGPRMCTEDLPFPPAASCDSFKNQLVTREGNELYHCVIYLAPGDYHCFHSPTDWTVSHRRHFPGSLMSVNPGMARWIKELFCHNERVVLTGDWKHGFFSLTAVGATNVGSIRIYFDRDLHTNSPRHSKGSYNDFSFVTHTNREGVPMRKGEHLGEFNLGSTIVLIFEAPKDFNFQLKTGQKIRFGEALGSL
Ends that are not written are not given here.
reported.property: pKd
Numbers only, as −log10 of the molar value.

Request: Item under review: ALLTSGTSDPRARVTYGTPSLWARL [1C11] . Reported pKd?
Result: 5.52
